For each entry below, report its GI50 value.
target.or.system: Ba/F3 EGFR-Del19/T790M/C797S (Homo sapiens, UniProt P00533, T790M/C797S, cells depend on it, form not given)
Sequence (P00533 with tags, fused parts or gaps DEL746-750/T790M/C797S, form open): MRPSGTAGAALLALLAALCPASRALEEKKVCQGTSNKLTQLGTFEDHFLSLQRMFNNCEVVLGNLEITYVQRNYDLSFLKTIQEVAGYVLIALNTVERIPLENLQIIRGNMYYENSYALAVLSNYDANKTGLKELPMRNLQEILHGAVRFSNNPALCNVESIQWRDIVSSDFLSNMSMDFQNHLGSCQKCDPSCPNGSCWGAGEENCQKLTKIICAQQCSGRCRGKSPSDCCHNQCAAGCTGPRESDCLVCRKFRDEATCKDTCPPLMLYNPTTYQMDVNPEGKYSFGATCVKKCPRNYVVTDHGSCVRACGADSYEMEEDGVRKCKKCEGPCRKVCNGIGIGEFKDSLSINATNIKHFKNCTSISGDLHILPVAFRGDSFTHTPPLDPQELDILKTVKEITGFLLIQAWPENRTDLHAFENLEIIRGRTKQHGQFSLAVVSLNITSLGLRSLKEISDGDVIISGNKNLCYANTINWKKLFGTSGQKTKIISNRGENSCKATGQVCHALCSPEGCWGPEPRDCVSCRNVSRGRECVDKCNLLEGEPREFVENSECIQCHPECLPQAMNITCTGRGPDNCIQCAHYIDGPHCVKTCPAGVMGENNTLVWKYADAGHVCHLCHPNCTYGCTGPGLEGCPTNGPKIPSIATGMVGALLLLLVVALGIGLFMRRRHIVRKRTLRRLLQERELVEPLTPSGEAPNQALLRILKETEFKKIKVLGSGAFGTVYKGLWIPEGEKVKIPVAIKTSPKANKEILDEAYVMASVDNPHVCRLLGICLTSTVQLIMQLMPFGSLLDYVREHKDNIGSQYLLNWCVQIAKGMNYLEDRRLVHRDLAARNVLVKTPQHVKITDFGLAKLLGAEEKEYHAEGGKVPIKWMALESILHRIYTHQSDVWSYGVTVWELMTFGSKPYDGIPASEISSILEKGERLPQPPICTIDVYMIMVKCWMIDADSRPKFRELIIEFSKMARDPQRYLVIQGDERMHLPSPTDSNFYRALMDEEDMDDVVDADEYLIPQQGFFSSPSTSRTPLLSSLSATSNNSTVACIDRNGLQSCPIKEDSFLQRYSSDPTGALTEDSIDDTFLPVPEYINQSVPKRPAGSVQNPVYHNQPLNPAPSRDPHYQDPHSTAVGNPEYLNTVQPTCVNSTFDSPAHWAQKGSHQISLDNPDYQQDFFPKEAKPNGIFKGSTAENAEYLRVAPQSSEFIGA
experiment.notes: Ba/F3 viability assay (CellTiter-Glo), DTC
Format: cell-based
condition: anti-proliferation, read-out: BaF3 DTC IC50

Give GI50 for each of the items listed below.
1. C[C@H]1CCOc2c(cnn2C)-c2nccc(n2)Nc2cc3c(cn2)c(-c2ncc(CN(C)C)s2)nn31
2. C[C@H]1CCOc2c(cnn2C)-c2nccc(n2)Nc2cc3c(cn2)c(-c2cnn(CCCN4CCOCC4)c2)nn31
3. CCN1CCc2c(cc(-c3nn4c5cc(ncc35)Nc3ccnc(n3)-c3cnn(C)c3OCC[C@@H]4C)n2C)C1C (stereo partly drawn)
4. C[C@H]1CCOc2c(cnn2C)-c2nccc(n2)Nc2cc3c(cn2)c(-c2ccc(CN4CC[C@H](N(C)C)C4)n2C)nn31
5. C[C@H]1CCOc2c(cnn2C)-c2nccc(n2)Nc2cc3c(cn2)c(-c2cccc(CN(C)C)c2)nn31
6. Cn1ncc2c1OCCCn1nc(N3CCCC3CO)c3cnc(cc31)Nc1ccnc-2n1 (stereo not drawn)

Given back:
["< 10 nM", "10 to 100 nM", "< 10 nM", "< 10 nM", "< 10 nM", "100 to 1000 nM"]

Give GI50 for each of the items listed below.
1. CCn1c(CN2CCN(C3CC3)CC2)ccc1-c1nn2c3cc(ncc13)Nc1ccnc(n1)-c1cnn(C)c1OCC[C@@H]2C
2. CCn1c(CN(C)C)ccc1-c1nn2c3cc(ncc13)Nc1ccnc(n1)-c1cnn(C)c1OCC[C@@H]2C
3. CC1CCOc2c(cnn2C)-c2nccc(n2)Nc2cc3c(cn2)c(-c2ccn(C)n2)nn31 (stereo not drawn)
4. C[C@H]1CCOc2c(cnn2C)-c2nccc(n2)Nc2cc3c(cn2)c(N2CC[C@@H](O)C2)nn31

Given back:
["< 10 nM", "< 10 nM", "10 to 100 nM", "< 10 nM"]

Batch of 2 compounds: report GI50 for each.
1. Cn1ncc2c1OCCCn1nc(N3CCC3)c3cnc(cc31)Nc1ccnc-2n1
2. C[C@H]1CCOc2c(cnn2C)-c2nccc(n2)Nc2cc3c(cn2)c(-c2cccc(N4CC[C@H](N(C)C)C4)c2)nn31

Given back:
1: 100 to 1000 nM; 2: < 10 nM

Required: GI50, one value per compound below.
1. C[C@H]1CCOc2c(cnn2C)-c2nccc(n2)Nc2cc3c(cn2)c(-c2nn(C)cc2CCN(C)C)nn31
2. C[C@H]1CCOc2c(cnn2C)-c2nccc(n2)Nc2cc3c(cn2)c(-c2ccc(CN4CCOCC4)n2C)nn31
3. C[C@H]1CCOc2c(cnn2C)-c2nccc(n2)Nc2cc3c(cn2)c(-c2ccc(CN4CCN(CCCF)CC4)n2C)nn31

Given back:
["10 to 100 nM", "< 10 nM", "< 10 nM"]
